These data points were gathered from ChEMBL document CHEMBL4715687.

experiment: Inhibition of CutC (unknown origin) in human feces assessed as reduction in TMA production using choline as substrate by LC-MS/MS analysis
Assay type: tissue-based, Bacteria
Hi there, I'd appreciate the recorded EC50 for every entry that follows.
State just the number; it will be interpreted in µM.

The reported EC50 of the compound `O=C(NC1CC1)C1CCN(Cc2nc3cc(F)ccc3o2)CC1` was 38

Short answer for `CN1CC=C[C@H](O)C1` : EC50 was 83.9

---

Would you mind telling me the reported log10 of EC50 of each entry?
experiment: Inhibition of CutC in Escherichia coli MS 200-1 assessed as reduction in d9-TMA formation using d9-choline chloride as substrate incubated for 4 hrs under anaerobic condition by LC-MS-MS analysis
Response schema: value (number) is log10 of EC50 in units of µM.

Value of measured log10 of EC50 for the entry O=C(Nc1ccc(N2CCOCC2)nc1)NC1CCCCNC1=O (stereo not given) : 2.47

In plain terms, `CN1CC=C[C@H](O)C1` has a documented log10 of EC50 of 1.04

Quick note, log10 of EC50 for COc1cc(CCNC(=O)NC2CCCCC2CO)ccc1F (stereo not given) landed at 2.61

Given item `Cc1cccc(NC2CCN(C(=O)Nc3cn[nH]c3)CC2)n1` , the value recorded as its log10 of EC50 is 2.16

For O=S(=O)(NCC1CCCC1O)c1ccc2cn[nH]c2c1 (stereo not given) the compound record lists log10 of EC50 as 2.69

Recorded result, `O=C(NC1CC1)C1CCN(Cc2nc3cc(F)ccc3o2)CC1` , log10 of EC50: 0.73

---

pIC50: −log10 of the molar value.
What pIC50 was measured for each of the following?

// pIC50 (Choline trimethylamine-lyase (Desulfovibrio alaskensis)) for `Cc1ccc(-n2nc(NC3CCN(C(N)=O)CC3)cc2C)cc1` = < 3.30

# lookup: O=C(CCc1ccccc1OC(F)(F)F)NC1CCCCNC1=O (centres undefined) on Choline trimethylamine-lyase (Desulfovibrio alaskensis), pIC50 = < 3.30

Choline trimethylamine-lyase (Desulfovibrio alaskensis) pIC50 of O=C(NC1CCCCC1CO)c1cc(F)cc2[nH]cnc12 (centres undefined) is < 3.30

Assay Choline trimethylamine-lyase (Desulfovibrio alaskensis), sample `Cc1cc(C(=O)NC2CCNCC2)no1` , pIC50 read: < 3.30
